target: T1, Soluble heterodimeric CD3 protein (hCD3-epsilon/hCD3-delta) with either a human Fc tag (hFcΔAdp/hFc) or a … (human, UniProt P07766 23-126; P04234 22-105); assay: SPR Biacore 25C antigen-capture
T1 construct: also called hCD3ε/δ; not shown: Fc tag: human (hFcΔAdp/hFc)
T1 sequence (P07766 23-126 limits assumed, stated change not applied, chain 1 of 2): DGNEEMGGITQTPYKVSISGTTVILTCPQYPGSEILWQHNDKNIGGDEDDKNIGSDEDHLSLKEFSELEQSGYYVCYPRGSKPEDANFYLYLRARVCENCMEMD
T1 sequence (P04234 22-105 limits assumed, stated change not applied, chain 2 of 2): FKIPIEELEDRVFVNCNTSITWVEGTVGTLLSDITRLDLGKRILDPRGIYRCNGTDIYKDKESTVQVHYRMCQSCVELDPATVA
Listed here: items and their measured koff.
Return type: number; implicit unit s⁻¹.

binder	koff [s⁻¹]
H1H5772S (antibody, V domains shown, H1H: human IgG1 Fc; divalent; also called H1H5772P) VH: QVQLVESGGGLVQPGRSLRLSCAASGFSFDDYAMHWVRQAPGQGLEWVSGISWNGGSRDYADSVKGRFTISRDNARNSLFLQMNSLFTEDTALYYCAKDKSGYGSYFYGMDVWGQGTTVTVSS VL: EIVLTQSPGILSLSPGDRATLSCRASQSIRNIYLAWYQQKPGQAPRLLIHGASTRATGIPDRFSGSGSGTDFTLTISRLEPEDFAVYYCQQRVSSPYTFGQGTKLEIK	0.000869

Now turn to the next binder.
Recorded result, H1H2712N (antibody, human IgG1, V domains shown, H1H: human IgG1 Fc; divalent) VH: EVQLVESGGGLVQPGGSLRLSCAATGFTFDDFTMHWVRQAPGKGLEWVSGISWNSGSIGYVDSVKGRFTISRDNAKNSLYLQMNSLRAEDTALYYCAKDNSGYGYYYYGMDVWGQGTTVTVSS VL: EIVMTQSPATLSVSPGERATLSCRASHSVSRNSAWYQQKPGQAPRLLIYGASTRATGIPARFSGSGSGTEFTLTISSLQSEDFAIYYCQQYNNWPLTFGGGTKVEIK , koff: 8.68e-05
